System: WPMY1-ACTB-RAB5A
Experiment: lowest phenotypically active concentration; higher = less potent
Conditions: treatment time: 24 h
// reported lowest phenotypically active concentration for each item listed
measured-parameter: lowest phenotypically active concentration (µM)

| compound | target | qual | reported |
| --- | --- | --- | --- |
| COc1cc2nc(-c3cc(F)ccc3O)nc(N[C@@H]3CNC[C@H]3C(C)(C)O)c2cc1OC | WPMY1-ACTB-RAB5A | = | 1 |
| CN1c2ccccc2C(=O)N2CCc3c([nH]c4ccccc34)[C@H]21 | WPMY1-ACTB-RAB5A | = | 1 |
| CCCCCCCCCCCCCCCC[n+]1ccn(Cc2ccccc2)c1C | WPMY1-ACTB-RAB5A | = | 3 |
| COc1ccc(N2C(=O)CSC2c2cccc(Br)c2)c(OC)c1 (centres undefined) | WPMY1-ACTB-RAB5A | = | 3 |
| C=CC(=O)N1CCC[C@@H](n2nc(-c3cccc(C(=O)Nc4ccc(C(C)C)c(C)c4)c3)c3c(N)ncnc32)C1 | WPMY1-ACTB-RAB5A | = | 1 |
| COc1ccnc(CS(=O)c2nc3cc(OC(F)F)ccc3[nH]2)c1OC (centres undefined) | WPMY1-ACTB-RAB5A | ≤ | 0.3 |
| O=C(NC(NC(=S)Nc1ccc(F)c([N+](=O)[O-])c1)C(Cl)(Cl)Cl)C(c1ccccc1)c1ccccc1 (centres undefined) | WPMY1-ACTB-RAB5A | = | 9 |
| Cc1noc(C)c1-c1ccc2c(c1)nc(CCc1ccc(OCCCN(C)C)cc1)n2CCN1CCOCC1 | WPMY1-ACTB-RAB5A | = | 9 |
| C=CC(=O)Nc1cccc(Nc2nc(Nc3ccc(Oc4ccnc(C(=O)NC)c4)cc3)ncc2F)c1 | WPMY1-ACTB-RAB5A | = | 3 |

====

Tested on: HepG2-GM130-SQSTM1
Experiment: phenotypically active (imaging signature differs from DMSO and reproducible) at any of 0.3-9 uM (binary (1 = active, 0 = inactive)); higher = active
Details: treatment time: 24 h

| molecule | phenotypically active |
| --- | --- |
| Cc1ccc([N+](=O)[O-])cc1S(=O)(=O)N(C)/N=C/c1cnc2ccc(Br)cn12 | 1 |
| Cc1cc(Nc2nc(N[C@@H](C)c3ncc(F)cn3)ncc2Cl)n[nH]1 | 1 |
| Cc1cc(C(C)(C)C)c(O)c(C)c1CC1=NCCN1 | 0 |
| CC(C)(C)c1ccc(S(=O)(=O)/C=C/C#N)cc1 | 1 |
| C=C1C[C@@]23CCC4[C@@](C)(CCC[C@@]4(C)C(=O)O[C@@H]4O[C@H](CO)C(O)[C@H](O)C4O)C2CC[C@@]1(O[C@H]1O[C@H](CO)C(O)[C@H](O)[C@H]1O[C@@H]1O[C@H](CO)[C@@H](O)[C@H](O)[C@H]1O)C3 (stereo not given in full) [Stevioside] | 0 |

====

Tested on: WPMY1-TP53BP1-CLTA
Assay: lowest phenotypically active concentration; higher = less potent
Conditions: treatment time: 24 h
Where a name gives a salt, the structure may show the parent alone.
List of lowest phenotypically active concentration values.
measured-parameter: lowest phenotypically active concentration (µM)

| compound | qual | reported |
| --- | --- | --- |
| COc1c(C)cnc(Cn2cnc3c(Cl)nc(N)nc32)c1C | ≤ | 0.3 |
| O=C(Cc1ccc(-c2ccc(OCCN3CCOCC3)cc2)cn1)NCc1ccccc1 | ≤ | 0.3 |
| COc1cc2nc(N3CCN(C(=O)C4COc5ccccc5O4)CC3)nc(N)c2cc1OC (stereo not drawn) [doxazosin] | = | 9 |
| O=c1cc(-c2cccc3c2Sc2ccccc2S3)oc(N2CCOCC2)c1 | = | 3 |
| Cc1c(CN2CCN(C(=O)[C@H](C)O)CC2)sc2c(N3CCOCC3)nc(-c3cnc(N)nc3)nc12 | ≤ | 0.3 |
| C/C=C1\NC(=O)[C@H]2CSSCCC=C[C@H](CC(=O)N[C@H](C(C)C)C(=O)N2)OC(=O)[C@H](C(C)C)NC1=O | ≤ | 0.3 |
| CN1CCN([C@H]2CC[C@H](n3cc(-c4ccc(Oc5ccccc5)cc4)c4c(N)ncnc43)CC2)CC1 | = | 1 |
| CC(C)c1cc(-c2n[nH]c(=O)n2-c2ccc3c(ccn3C)c2)c(O)cc1O [ganetespib] | ≤ | 0.3 |
| COc1cccc(-c2cc(F)ccc2[C@H]2Cc3nc(N)nc(C)c3C(=O)N2)n1 | ≤ | 0.3 |
| CC[C@@H](N)CNc1ccnc(-c2cc(-c3cnn(C)c3)ccc2O)n1 | = | 1 |
| NC(=O)Nc1cc(-c2cccc(F)c2)sc1C(=O)N[C@H]1CCCNC1 [AZD 7762 hydrochloride] | ≤ | 0.3 |
| O=C1NCCN1CCN1CCC(c2cn(-c3ccc(F)cc3)c3ccc(Cl)cc23)CC1 [sertindole] | = | 9 |
| COc1cc(OC2CCN(C)CC2)ccc1Nc1ncc2c(n1)n(C1CCCC1)c(=O)n2C | = | 9 |
| O=C(O)/C(Cc1ccccc1[N+](=O)[O-])=N\Nc1nc(-c2ccc(Cl)c(Cl)c2)cs1 | = | 9 |
| NC(=O)c1cccc(-c2cc(Nc3ccc(OC(F)(F)F)cc3)ncn2)c1 | = | 9 |
| N#Cc1cccc(-c2c[nH]c3ncnc(N4CCOCC4)c23)c1 | = | 3 |
| CS(=O)(=O)c1ccc(-c2nnc(/C=C/c3nnc(-c4ccc(C#N)cc4)o3)n2-c2ccccc2Cl)nc1 | = | 9 |
| CC[C@]1(O)C[C@@H]2CN(CCc3c([nH]c4ccccc34)[C@@](C(=O)OC)(c3cc4c(cc3OC)N(C=O)[C@H]3[C@@](O)(C(=O)OC)[C@H](OC(C)=O)[C@]5(CC)C=CCN6CC[C@]43[C@@H]65)C2)C1 [vincristine] | ≤ | 0.3 |
